# Tested on: Mycobacterium avium
# CONDITION: 104 mc'2 4
For each entry below, report its MIC value.

Hi, could you look up MIC for each item in my list?
1. CCCOc1ccc(-c2cn(CCN3CCCCCC3)c3ccccc3c2=O)cc1
2. CCCOc1ccc(-c2cn(CCN(CC)CC)c3ccccc3c2=O)cc1

1: < 0.125 µg/mL; 2: 2 µg/mL

Hi, could you look up MIC for each item in my list?
1. CSc1ccc2c(c1)N(CCC1CCCCN1C)c1ccccc1S2 (stereo not given) [THIORIDAZINE]
2. CN(C)CCCN1c2ccccc2Sc2ccc(Cl)cc21 [CHLORPROMAZINE]

0.5 µg/mL
0.25 µg/mL

Provide MIC value for the following compound: CCCOc1ccc(-c2cn(CCN3CCCCC3)c3ccccc3c2=O)cc1
< 0.125 µg/mL
